# targetOrSystem: APOL1 G2 (Homo sapiens, UniProt O14791, DEL388-389)
# Construct: expressed in transfected cells; host or cells: HEK293 T-REx clonal line stably expressing GCaMP6f (HEK T-REx/GCaMP6f/APOL1 G2 K6.3), doxycycline induced
# Sequence (O14791 with tags, fused parts or gaps DEL388-389): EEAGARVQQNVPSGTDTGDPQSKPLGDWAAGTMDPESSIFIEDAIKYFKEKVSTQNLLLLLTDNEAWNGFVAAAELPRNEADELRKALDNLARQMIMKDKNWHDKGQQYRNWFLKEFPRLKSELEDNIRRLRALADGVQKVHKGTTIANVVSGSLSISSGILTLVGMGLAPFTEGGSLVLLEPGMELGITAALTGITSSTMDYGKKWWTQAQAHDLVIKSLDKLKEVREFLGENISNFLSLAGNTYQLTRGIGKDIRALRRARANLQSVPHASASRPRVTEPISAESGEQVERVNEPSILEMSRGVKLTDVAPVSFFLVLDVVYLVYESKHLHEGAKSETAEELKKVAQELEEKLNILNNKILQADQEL
# procedureSummary: APOL1-mediated calcium transport (calcium influx) assay, HEK T-REx/GCaMP6f/APOL1 G2 K6.3 cells, FLIPR TETRA
# Format: cell-based
# recordedConditions: prevention of calcium influx; geometric mean of at least 2 assay runs; † = average of a technical replicate from a single assay run
Cut-off 700 nM on AC50: below means 1 (yes), at or above means 0 (no).

Some entries whose results are on file:
- CC(c1c(F)cc(OCCN2CCC3(CC2)C(=O)Nc2ccc(Cl)cc23)cc1F)S(C)(=O)=O (centres unmarked) [Compound 141]: 0 (no)
- CC(c1ccc(OCCN2CCC3(CC2)C(=O)Nc2ccc(C#N)cc23)cc1)S(C)(=O)=O (single isomer, unassigned) [Compound 135]: 0 (no)
- N#Cc1ccc2c(c1)C1(CCN(CCOc3ccc(C4(C(=O)N5CC(F)C5)COC4)cc3)CC1)C(=O)N2: 0 (no)
- CNC(=O)N1CCc2cc(OCCN3CCC4(CC3)C(=O)Nc3ccc(C#N)cc34)ccc2C1: 0 (no)
- Cn1ncc2cc(OCCN3CCC4(CC3)C(=O)Nc3ccc(Cl)cc34)ccc21: 1 (yes)

Consider the molecule CC(COc1ccc(C2(S(C)(=O)=O)COC2)cc1)N1CCC2(CC1)C(=O)Nc1ccc(C#N)cc12 (centres unmarked) [Compound 262] . Is its AC50 strictly less than 700 nM? 0 (no)

State whether 700 nM exceeds AC50 recorded for "CN1C(=O)C2(CCN(CCOc3ccc(N4CCCC4=O)cc3)CC2)c2ccccc21" . 1 (yes)

Does "CNC(=O)C1(S(=O)(=O)c2ccc(OCCN3CCC4(CC3)C(=O)Nc3ccc(Cl)cc34)cc2)CC1" have AC50 strictly under 700 nM? 0 (no)

I'd appreciate it if you could check whether CC(COc1ccc2c(c1)CCC(=O)N2C)N1CCC2(CC1)C(=O)Nc1ccc(Cl)cc12 (single isomer, unassigned) [Compound 201] has AC50 smaller than 700 nM. 0 (no)

Quick check: AC50 of O=C1CCc2cc(OCCN3CCC4(CC3)C(=O)Nc3ccc(Cl)cc34)cnc2N1[C@H]1C[C@@H](CO)C1 (single isomer, unassigned) under 700 nM? 1 (yes)

Threshold test, AC50 < 700 nM: C[C@]1(O)C[C@@H](n2ncc3cc(OCCN4CCC5(CC4)C(=O)Nc4ccc(C#N)cc45)cnc32)C1 (single isomer, unassigned) 1 (yes)

Please determine if O=C1CCC2c3ccc(OCCN4CCC5(CC4)C(=O)Nc4ccc(Cl)cc45)cc3CCN12 (centres unmarked) [Compound 121] is below 700 nM in terms of AC50. 1 (yes)

Please determine if CC(O)c1ncc(OCCN2CCC3(CC2)C(=O)Nc2ccc(Cl)cc23)cc1C(F)(F)F (single isomer, unassigned) [Compound 292] is below 700 nM in terms of AC50. 0 (no)

is_below(AC50, 700 nM) for "NC(=O)c1ncc(OCCN2CCC3(CC2)C(=O)Nc2ccc(Cl)cc23)cn1" ? 0 (no)

Quick check: does "CS(=O)(=O)C1(c2ccc(OCCN3CCC4(CC3)C(=O)Nc3ccc(C#N)cc34)cc2)CC1" have AC50 under 700 nM? 1 (yes)

Attribution: patent US12344610B2
